- experimentDescription: Experiment 4D binding to FITC-labelled hyaluronic acid
- reportedConditions: biotinylated peptide 1 ug/well; 1 ug FITC-labelled hyaluronic acid, 90 minutes
Square brackets hold non-standard residues; d marks the D form. Ends that are not written are not given here.
propertyLabel: Hyaluronate binding, counts normalized for immX3 peptide binding=100
No unit in the answer, only the number.

{"columns": ["substance", "quantitativeReadout"],
 "data": [
  ["SLNPEWNETKGFYKKKQCRPSKGRKRGFCW[dA][dV][dD] (cysteine pairing not given here) [immX3K1dAdVdD]", 101.9]
]}

QUERY: Item RKGFYKRKQCKPSRGRKRGICWAVD [immX5AVD] has what recorded Hyaluronate binding, counts normalized for immX3 peptide binding=100?
RESULT: 113.9

QUERY: Given the substance KKGFYKKKQCRPSKGRKRGFCW[dA][dV][dD] (cysteine pairing not given here) [immX3dAdVdD] , what is its reported Hyaluronate binding, counts normalized for immX3 peptide binding=100?
RESULT: 104.2

QUERY: Tell me the measured Hyaluronate binding, counts normalized for immX3 peptide binding=100 of RNGNFHPKQCHPALDGQRGKCWAVD [immX4AVD] , please.
RESULT: 61.1

Entry source: patent US12410220B2
